test target: T1, TNFR1 (Homo sapiens, UniProt P19438)
T1 chain: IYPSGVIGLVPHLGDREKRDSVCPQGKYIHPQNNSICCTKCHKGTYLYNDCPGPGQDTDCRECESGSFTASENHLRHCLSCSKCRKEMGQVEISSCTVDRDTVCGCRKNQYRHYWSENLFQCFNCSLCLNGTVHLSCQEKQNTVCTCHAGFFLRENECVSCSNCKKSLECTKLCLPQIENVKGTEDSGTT
test summary: yeast display SC50
property name: apparent Kd (screen) (pM)
Give just the number in pM; leave the unit off.

Here are 5 binders together with their reported answers.
binder	apparent Kd (screen) / pM
L3P (designed binder) MTPQELLREEALRRAEAEAFRYALELLAEKFPEQKEYLLDLAEEIESQIRSLSGVDVEDVRKFLDKEWAWVKELLAEHPAELAEVEAARAARLAELRAEVEAKVAA	2730
L38E (designed binder) MTLQELLREEALRRAEAEAFRYALELLAEKFPEQKEYELDLAEEIESQIRSLSGVDVEDVRKFLDKEWAWVKELLAEHPAELAEVEAARAARLAELRAEVEAKVAA	10400
E77K (designed binder) MTLQELLREEALRRAEAEAFRYALELLAEKFPEQKEYLLDLAEEIESQIRSLSGVDVEDVRKFLDKEWAWVKELLAKHPAELAEVEAARAARLAELRAEVEAKVAA	446
A94K (designed binder) MTLQELLREEALRRAEAEAFRYALELLAEKFPEQKEYLLDLAEEIESQIRSLSGVDVEDVRKFLDKEWAWVKELLAEHPAELAEVEAARAARLKELRAEVEAKVAA	653
E101H (designed binder) MTLQELLREEALRRAEAEAFRYALELLAEKFPEQKEYLLDLAEEIESQIRSLSGVDVEDVRKFLDKEWAWVKELLAEHPAELAEVEAARAARLAELRAEVHAKVAA	718

Ask: Entry under review: Y22P (designed binder) MTLQELLREEALRRAEAEAFRPALELLAEKFPEQKEYLLDLAEEIESQIRSLSGVDVEDVRKFLDKEWAWVKELLAEHPAELAEVEAARAARLAELRAEVEAKVAA . Reported apparent Kd (screen)?
Result: 4390

Ask: Entry under review: P32W (designed binder) MTLQELLREEALRRAEAEAFRYALELLAEKFWEQKEYLLDLAEEIESQIRSLSGVDVEDVRKFLDKEWAWVKELLAEHPAELAEVEAARAARLAELRAEVEAKVAA . Reported apparent Kd (screen)?
Result: 490

Ask: Entry under review: S53N (designed binder) MTLQELLREEALRRAEAEAFRYALELLAEKFPEQKEYLLDLAEEIESQIRSLNGVDVEDVRKFLDKEWAWVKELLAEHPAELAEVEAARAARLAELRAEVEAKVAA . Reported apparent Kd (screen)?
Result: 653
